All values here come from ChEMBL document CHEMBL3526001.

test_method_notes: clinical
stated_conditions: human, in vivo
Description: Fraction absorbed in human
measurement_label: Fa (%)
Report the figure in % without appending any unit label.

// Fa value for CC(C)c1nc(CN(C)C(=O)N[C@H](C(=O)N[C@@H](Cc2ccccc2)C[C@H](O)[C@H](Cc2ccccc2)NC(=O)OCc2cncs2)C(C)C)cs1 : 66

// Fa value for CNCCC(Oc1ccc(C(F)(F)F)cc1)c1ccccc1 (centres undefined) : 70

// Fa value for CC(C)c1nc(N(C)S(C)(=O)=O)nc(-c2ccc(F)cc2)c1/C=C/[C@@H](O)C[C@@H](O)CC(=O)O : 20

// Fa value for O=C(O)COCCN1CCN(C(c2ccccc2)c2ccc(Cl)cc2)CC1 (centres undefined) : 66

====

System: P-gp
test_method_notes: in vitro
stated_conditions: human, Caco-2
measurement_label: efflux ratio at 2 h, 10 µM
Give the figure only, with no unit attached.

So the reported efflux ratio at 2 h, 10 µM for CC[C@H]1OC(=O)[C@H](C)[C@@H](O[C@H]2C[C@@](C)(OC)[C@@H](O)[C@H](C)O2)[C@H](C)[C@@H](O[C@@H]2O[C@H](C)C[C@H](N(C)C)[C@H]2O)[C@](C)(O)C[C@@H](C)C(=O)[C@H](C)[C@@H](O)[C@]1(C)O , on P-gp, turned out to be 0.5

So the reported efflux ratio at 2 h, 10 µM for C[C@H]1O[C@@H](O[C@H]2[C@@H](O)C[C@H](O[C@H]3[C@@H](O)C[C@H](O[C@H]4CC[C@@]5(C)[C@H](CC[C@@H]6[C@@H]5C[C@@H](O)[C@]5(C)[C@@H](C7=CC(=O)OC7)CC[C@]65O)C4)O[C@@H]3C)O[C@@H]2C)C[C@H](O)[C@@H]1O , on P-gp, turned out to be 1

So the reported efflux ratio at 2 h, 10 µM for CCCC(=O)Nc1ccc(OCC(O)CNC(C)C)c(C(C)=O)c1 (stereo not given) , on P-gp, turned out to be 1

So the reported efflux ratio at 2 h, 10 µM for O=C1c2c(O)ccc(O)c2C(=O)c2c(NCCNCCO)ccc(NCCNCCO)c21 , on P-gp, turned out to be 0.6

So the reported efflux ratio at 2 h, 10 µM for CN1CCN(CCCN2c3ccccc3Sc3ccc(C(F)(F)F)cc32)CC1 , on P-gp, turned out to be 0.9

====

Please respond with reported Papp for every item in the list.
stated_conditions: human, caco-2, 2 h, 10 µM
Numbered stars: 1 amine (or outer) side, 2 acyl side, 3 side chain; on linkers, the order of the positions; unused ones are H or OH. Bridge positions count the residues as written; N and C are the ends. Square brackets hold non-standard residues; d marks the D form. Peptide text beside a SMILES is read from it. I, II: the chains in the order shown. Actinocin(9to1) = Cc1c2oc3c(C)ccc(C(=O)[*:1])c3nc-2c(C(=O)[*:2])c(N)c1=O; NMeV = CN[C@H](C(=O)O)C(C)C; Sar = CNCC(=O)O
Report the figure in ×10⁻⁶ cm/s without appending any unit label.

// Papp value for Nc1cc(-c2ccncc2)c[nH]c1=O : 7.5

// Papp value for CC(C)(C)NC(=O)[C@@H]1C[C@@H]2CCCC[C@@H]2CN1C[C@@H](O)[C@H](Cc1ccccc1)NC(=O)[C@H](CC(N)=O)NC(=O)c1ccc2ccccc2n1 : 0.4

// Papp value for CC1=C(CC(=O)O)c2cc(F)ccc2/C1=C\c1ccc([S+](C)[O-])cc1 (centres undefined) : 2

// Papp value for CC[C@]1(O)C[C@H]2CN(CCc3c([nH]c4ccccc34)[C@@](C(=O)OC)(c3cc4c(cc3OC)N(C=O)[C@H]3[C@@](O)(C(=O)OC)[C@H](OC(C)=O)[C@]5(CC)C=CCN6CC[C@]43[C@@H]65)C2)C1 : 0.4

// Papp value for Cc1c2oc3c(C)ccc(C(=O)N[C@@H]4C(=O)N[C@H](C(C)C)C(=O)N5CCC[C@H]5C(=O)N(C)CC(=O)N(C)[C@@H](C(C)C)C(=O)O[C@@H]4C)c3nc-2c(C(=O)N[C@@H]2C(=O)N[C@H](C(C)C)C(=O)N3CCC[C@H]3C(=O)N(C)CC(=O)N(C)[C@@H](C(C)C)C(=O)O[C@@H]2C)c(N)c1=O [DACTINOMYCIN] (I: T[dV]P[Sar][NMeV] / II: T[dV]P[Sar][NMeV]; ester I:1-I:C, II:1-II:C; linker I:N-II:N via Actinocin(9to1)) : 0.8

// Papp value for O=C1C(CC[S+]([O-])c2ccccc2)C(=O)N(c2ccccc2)N1c1ccccc1 (centres undefined) : 1.2

// Papp value for CC[C@@]1(O)C(=O)OCc2c1cc1n(c2=O)Cc2cc3c(CN(C)C)c(O)ccc3nc2-1 : 0.9

// Papp value for CC(C)n1c(/C=C/C(O)CC(O)CC(=O)O)c(-c2ccc(F)cc2)c2ccccc21 (centres undefined) : 1.5

// Papp value for Cc1ccccc1N1C(=O)c2cc(S(N)(=O)=O)c(Cl)cc2NC1C (centres undefined) : 1.8

====

test_method_notes: in vitro
stated_conditions: human, Caco-2
Please respond with reported Papp A→B at 2 h, 10 µM for every item in the list.
Report the figure in ×10⁻⁶ cm/s without appending any unit label.

// Papp A→B at 2 h, 10 µM value for CC[C@H]1OC(=O)[C@H](C)[C@@H](O[C@H]2C[C@@](C)(OC)[C@@H](O)[C@H](C)O2)[C@H](C)[C@@H](O[C@@H]2O[C@H](C)C[C@H](N(C)C)[C@H]2O)[C@](C)(OC)C[C@@H](C)C(=O)[C@H](C)[C@@H](O)[C@]1(C)O : 3.5

// Papp A→B at 2 h, 10 µM value for Cc1c(O)cccc1C(=O)N[C@@H](CSc1ccccc1)[C@H](O)CN1C[C@H]2CCCC[C@H]2C[C@H]1C(=O)NC(C)(C)C : 0.7

// Papp A→B at 2 h, 10 µM value for Cc1cn([C@H]2C[C@H](N=[N+]=[N-])[C@@H](CO)O2)c(=O)[nH]c1=O : 6.7

====

test_method_notes: in vitro
stated_conditions: human, Caco-2
Please respond with reported efflux ratio at 2 h, 10 µM for every item in the list.
Give the figure only, with no unit attached.

// efflux ratio at 2 h, 10 µM value for CCn1cc(C(=O)O)c(=O)c2cc(F)c(N3CCNCC3)cc21 [NORFLOXACIN] : 1.7

// efflux ratio at 2 h, 10 µM value for CCC1=C[C@@H]2CN(C1)Cc1c([nH]c3ccccc13)[C@@](C(=O)OC)(c1cc3c(cc1OC)N(C)[C@H]1[C@@](O)(C(=O)OC)[C@H](OC(C)=O)[C@]4(CC)C=CCN5CC[C@]31[C@@H]54)C2 [VINORELBINE] : 5.9

// efflux ratio at 2 h, 10 µM value for CCCC(=O)Nc1ccc(OCC(O)CNC(C)C)c(C(C)=O)c1 (stereo not drawn) [ACEBUTOLOL] : 3.6

// efflux ratio at 2 h, 10 µM value for O=C1C(CC[S+]([O-])c2ccccc2)C(=O)N(c2ccccc2)N1c1ccccc1 (stereo not drawn) [SULFINPYRAZONE] : 3.3

// efflux ratio at 2 h, 10 µM value for COc1ccc([C@@H]2Sc3ccccc3N(CCN(C)C)C(=O)[C@@H]2OC(C)=O)cc1 [DILTIAZEM] : 0.7

// efflux ratio at 2 h, 10 µM value for COc1cc([C@@H]2c3cc4c(cc3[C@@H](O[C@@H]3O[C@@H]5CO[C@@H](c6cccs6)O[C@H]5[C@H](O)[C@H]3O)[C@H]3COC(=O)[C@H]23)OCO4)cc(OC)c1O [TENIPOSIDE] : 9.8

// efflux ratio at 2 h, 10 µM value for O=C(O)c1cc(/N=N/c2ccc(S(=O)(=O)Nc3ccccn3)cc2)ccc1O [SULFASALAZINE] : 16.9

// efflux ratio at 2 h, 10 µM value for O=C(O)c1cc(/N=N/c2ccc(O)c(C(=O)O)c2)ccc1O [OLSALAZINE] : 3.7

// efflux ratio at 2 h, 10 µM value for CC[C@]1(O)C[C@@H]2CN(CCc3c([nH]c4ccccc34)[C@@](C(=O)OC)(c3cc4c(cc3OC)N(C)[C@H]3[C@@](O)(C(=O)OC)[C@H](OC(C)=O)[C@]5(CC)C=CCN6CC[C@]43[C@@H]65)C2)C1 [VINBLASTINE] : 13.5

// efflux ratio at 2 h, 10 µM value for C=CC[C@@H]1/C=C(\C)C[C@H](C)C[C@H](OC)[C@H]2O[C@@](O)(C(=O)C(=O)N3CCCC[C@H]3C(=O)O[C@H](/C(C)=C/[C@@H]3CC[C@@H](O)[C@H](OC)C3)[C@H](C)[C@@H](O)CC1=O)[C@H](C)C[C@@H]2OC [TACROLIMUS ANHYDROUS] : 3.5

// efflux ratio at 2 h, 10 µM value for Cc1ccccc1N1C(=O)c2cc(S(N)(=O)=O)c(Cl)cc2NC1C (stereo not drawn) [METOLAZONE] : 3.3

// efflux ratio at 2 h, 10 µM value for CCCCC(=O)N(Cc1ccc(-c2ccccc2-c2nnn[nH]2)cc1)[C@H](C(=O)O)C(C)C : 4.1

// efflux ratio at 2 h, 10 µM value for COC(=O)[C@H]1[C@H]2C[C@@H]3c4[nH]c5cc(OC)ccc5c4CCN3C[C@H]2C[C@@H](OC(=O)c2cc(OC)c(OC)c(OC)c2)[C@@H]1OC [RESERPINE] : 0.6
